B1: library; a variant is named by its letters at N, in order (parent)
chain: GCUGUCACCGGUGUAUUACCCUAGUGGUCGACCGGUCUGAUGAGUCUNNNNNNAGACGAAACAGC

# Variants of: B1
# PROTOCOL SUMMARY: normalized RNA/DNA level with ligand (relative to sTRSVctl = 100) (log10 (% of sTRSVctl)); ligand: hypoxanthine (xanthine aptamer); higher = less ribozyme self-cleavage, higher mRNA level
# CONDITION DETAILS: ligand concentration (+) RNA-Seq: 5 mM, HEK293T, reporter: mCherry (pCS4076), ligand present: yes
Overview of recorded normalized RNA/DNA level with ligand (log10) for various variants
Provide a numeric answer; units are not to be included.

Before answering, review these 8 worked examples.
mutation_notation=GAGGGU numeric_value=1.93
mutation_notation=ACUGAG numeric_value=1.82
mutation_notation=UGGGCC numeric_value=1.96
mutation_notation=GUUUGU numeric_value=1.95
mutation_notation=AAGGGG numeric_value=1.78
mutation_notation=AUGUGA numeric_value=1.85
mutation_notation=AGAGAU numeric_value=1.85
mutation_notation=AUGAAA numeric_value=1.87

Exercise: I have this variant here, `UGUGGA` , and I need its recorded normalized RNA/DNA level with ligand (log10).
Key: 1.91

Exercise: Follow-up entry: `AUCCCA`
Key: 1.92

Exercise: Follow-up entry: `GCGUUA`
Key: 1.94

Exercise: Follow-up entry: `CUGGAA`
Key: 1.94

Exercise: Follow-up entry: `GCUCCG`
Key: 1.88

Exercise: Follow-up entry: `AUCAAG`
Key: 1.85

Exercise: Follow-up entry: `UACUGC`
Key: 1.97

Exercise: Follow-up entry: `UUUAGG`
Key: 1.9
